# Tested on: Plasmodium falciparum
# experimentDescription: Antimalarial activity against Plasmodium falciparum 3D7
# Format: functional, organism-based
pIC50: −log10 of the molar value.
quantityKind: pIC50

{"columns": ["smi", "recordedResult"],
 "data": [
  ["NNC(=O)c1ccncc1", 2.92]
]}

###

# Test system: Plasmodium falciparum
# experimentDescription: Antimalarial activity against Plasmodium falciparum 3D7 by reduced [3H]hypoxanthine uptake
# Type: functional, organism-based
Threshold-based label: EC50 under 6 µM gives label 1, EC50 not under 6 µM gives label 0.

{"columns": ["compound", "answerLabel"],
 "data": [
  ["Oc1cc(Cc2ccccc2)ccc1Oc1ccc(Cl)cc1Cl", "label 0"],
  ["Oc1cc(Cl)ccc1Oc1ccc(Cl)cc1Cl [TRICLOSAN]", "label 1"],
  ["Oc1cc(CCc2ccccc2)ccc1Oc1ccc(Cl)cc1Cl", "label 1"],
  ["CCc1ccc(Oc2ccc(Cl)cc2Cl)c(O)c1", "label 1"],
  ["Oc1cc(CC2CCCCC2)ccc1Oc1ccc(Cl)cc1Cl", "label 1"],
  ["N#Cc1ccc(Oc2ccc(Cc3ccncc3)cc2O)c(Cl)c1", "label 0"]
]}
